meta.source: ChEMBL document CHEMBL5030545

study.system: UniProt:P11712
Sequence (P11712 whole entry): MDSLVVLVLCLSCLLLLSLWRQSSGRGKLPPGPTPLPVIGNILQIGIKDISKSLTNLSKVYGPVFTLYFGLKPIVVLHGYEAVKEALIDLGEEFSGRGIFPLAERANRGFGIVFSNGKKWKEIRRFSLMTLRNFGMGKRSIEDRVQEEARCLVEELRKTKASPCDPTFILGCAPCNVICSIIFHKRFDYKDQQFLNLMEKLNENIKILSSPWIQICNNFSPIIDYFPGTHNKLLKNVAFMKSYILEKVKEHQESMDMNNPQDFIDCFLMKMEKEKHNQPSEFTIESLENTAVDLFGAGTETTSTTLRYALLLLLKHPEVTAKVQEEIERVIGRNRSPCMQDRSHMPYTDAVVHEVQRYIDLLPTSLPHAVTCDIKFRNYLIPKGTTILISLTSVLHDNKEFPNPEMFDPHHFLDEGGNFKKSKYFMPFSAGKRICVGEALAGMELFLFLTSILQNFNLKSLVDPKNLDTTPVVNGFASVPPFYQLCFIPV
pIC50: −log10 of the molar value.
metric: pIC50

Exam item: pIC50 for C[C@@H](Cn1c(=O)[nH]/c(=N\c2ccc(Oc3ccccn3)cc2)n(Cc2ccc(Cl)cc2)c1=O)C(=O)O ?
Marked response: < 4.70

###

Provide the reported clearance of each item.
assay: Clearance in rat at 1 mg/kg, iv
Type: ADME, organism-based
run.parameters: in vivo
Numbers only, in mL/min/kg.

C[C@@H](Cn1c(=O)[nH]/c(=N\c2ccc(Oc3ccccn3)cc2)n(Cc2ccc(Cl)cc2)c1=O)C(=O)O
2.7
C[C@@H](Cn1c(=O)[nH]/c(=N\c2ccc(Oc3ccnc(F)c3)cc2)n(Cc2ccc(Cl)cc2)c1=O)C(=O)O
5.9
C[C@@H](Cn1c(=O)[nH]/c(=N\c2ccc(Oc3ccsn3)cc2)n(Cc2ccc(Cl)cc2)c1=O)C(=O)O
2.2

// switching to the query compound
Exam item: clearance for Cc1ccc(Cn2c(Nc3ccc(OC(C)C)c(Cl)c3)nc(=O)n(CCC(=O)O)c2=O)cc1 ?
Marked response: 2.7

###

assay: Plasma concentration in rat at 10 mg/kg, po measured after 3 hrs
Format: ADME, organism-based
metric: concentration at 3 h (µM)
Answers are plain numbers, in µM.

Exam item: concentration at 3 h for Cc1ccc(Cn2c(Nc3ccc(OC(C)C)c(Cl)c3)nc(=O)n(CCC(=O)O)c2=O)cc1 ?
Marked response: 7.84

###

Provide the reported bioavailability of each item.
assay: Oral bioavailability in rat at 3 mg/kg
Format: ADME, organism-based
run.parameters: in vivo

Solved cases (2 shown):
C[C@@H](Cn1c(=O)[nH]/c(=N\c2ccc(Oc3ccsn3)cc2)n(Cc2ccc(Cl)cc2)c1=O)C(=O)O
60%
C[C@@H](Cn1c(=O)[nH]/c(=N\c2ccc(Oc3ccnc(F)c3)cc2)n(Cc2ccc(Cl)cc2)c1=O)C(=O)O
46.9%

// switching to the query compound
Exam item: bioavailability for C[C@@H](Cn1c(=O)[nH]/c(=N\c2ccc(Oc3ccccn3)cc2)n(Cc2ccc(Cl)cc2)c1=O)C(=O)O ?
Marked response: 76.8%

###

assay: Free plasma concentration in rat plasma at 1 mg/kg administered as cassette dose
Assay type: ADME, organism-based
run.parameters: in vivo
metric: Cp(f)

C[C@@H](Cn1c(=O)[nH]/c(=N\c2ccc(Oc3ccnc(F)c3)cc2)n(Cc2ccc(Cl)cc2)c1=O)C(=O)O
738 nM

List the reported Cp(f) of each compound below.
1. CC(C)Oc1ccc(/N=c2\[nH]c(=O)n(C[C@@H](C)C(=O)O)c(=O)n2Cc2ccc(Cl)cc2)cc1Cl
2. C[C@@H](Cn1c(=O)[nH]/c(=N\c2ccc(Oc3cnccn3)cc2)n(Cc2ccc(Cl)cc2)c1=O)C(=O)O

Marked response:
1: 1001 nM; 2: 330 nM

###

Provide the reported fraction unbound of each item.
assay: Protein binding in rat plasma assessed as unbound fraction at 1 mg/kg administered as cassette dose
Assay type: ADME, organism-based
Numbers only.

Solved cases (3 shown):
CC(C)Oc1ccc(/N=c2\[nH]c(=O)n(C[C@H](C)C(=O)O)c(=O)n2Cc2ccc(Cl)cc2)cc1Cl
0.003
Cc1cc(/N=c2\[nH]c(=O)n(C[C@H](C)C(=O)O)c(=O)n2Cc2ccc(Cl)cc2)ccc1OC(C)C
0.02
Cc1ccc(Cn2c(=O)n(C[C@H](C)C(=O)O)c(=O)[nH]/c2=N\c2ccc(OC(C)C)c(Cl)c2)cc1
0.014

// switching to the query molecule
Exam item: fraction unbound for CC(C)Oc1ccc(Nc2nc(=O)n(CCCO)c(=O)n2Cc2ccc(Cl)cc2)cc1Cl ?
Marked response: 0.003
